B1: ARL6IP1 (parent)
chain: YLDPSVLSGVSCFVMFLCLADYLV

Variants of: B1
Assay: protein stability index of a GFP-peptide fusion (GPS, HEK-293T) (PSI 1-6); higher = more stable;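 also: lentivirally expressed fusions sorted by FACS into six bins by GFP to DsRed ratio, PSI derived from sequencing read proportions per bin multiplied by bin number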
Settings: c terminus: a fixed tail appended
MEASUREMENT TYPE: protein stability index
Answers are plain numbers.

Sample records with protein stability index:
SEQUENCE ENTRY | ENDPOINT VALUE
YLDPSVLSGVSCFVMFLCLADYHV [L23H] | 2.74
YLDPSVLSAVSCFVMFLCLADYLV [G9A] | 3.74
YLDPSVLSGESCFVMFLCLADYLV [V10E] | 2.67
YLDPSVLSGVSCFVMFLYLADYLV [C18Y] | 1.96
YLDPSVLSGVSCFVIFLCLADYLV [M15I] | 4.76
YLDPSVLSGVSCFVMFLGLADYLV [C18G] | 2.47
YLDPSVLSGVSCFVMFLCYADYLV [L19Y] | 1.85
YLDPSVLSGVSCFVMFSCLADYLV [L17S] | 1.35
YLDPSVLNGVSCFVMFLCLADYLV [S8N] | 3.35
YLDPSVLSGVSCFVMFLCLADYLC [V24C] | 3.6

Below is a list of variants. For each, state its recorded protein stability index.
1. YLDPSVLSGVSCFVMFLFLADYLV [C18F]
2. YLDPSVLSGVSCFVMFLCLADYEV [L23E]
3. YIDPSVLSGVSCFVMFLCLADYLV [L2I]
4. YLDPSVLSGVSCFVMFACLADYLV [L17A]
5. YLDPSVLSGVSCFVMFLCLADYCV [L23C]
6. YLDPSVLSGVSCFVMFLCLFDYLV [A20F]
7. YLDPSVLFGVSCFVMFLCLADYLV [S8F]

Reply:
1. 3.35
2. 4.8
3. 1.63
4. 2.34
5. 3.76
6. 2.87
7. 3.22

Below is a list of variants. For each, state its recorded protein stability index.
1. YLDPSVLSGVSCFVMFLCLAAYLV [D21A]
2. YLDPSVLSGVGCFVMFLCLADYLV [S11G]
3. YLDPSVLSGVSCFVMFLCLNDYLV [A20N]
4. YLDPSVLSGVSCFVTFLCLADYLV [M15T]

Reply:
2.71
3.42
3.34
3.04

Query: Identify protein stability index associated with the variant YLDPSVLSGVSCFVDFLCLADYLV [M15D]
Reply: 2.69

Source of measurements: the supplement of paper PMC10567573
